Target: PAF specific receptor binding site on human platelet membranes (Homo sapiens, UniProt P25105)
Construct: 100 μg of the platelet plasma membrane suspension; from tissue; host or cells: human platelets (plasma membranes)
Sequence (P25105 whole entry): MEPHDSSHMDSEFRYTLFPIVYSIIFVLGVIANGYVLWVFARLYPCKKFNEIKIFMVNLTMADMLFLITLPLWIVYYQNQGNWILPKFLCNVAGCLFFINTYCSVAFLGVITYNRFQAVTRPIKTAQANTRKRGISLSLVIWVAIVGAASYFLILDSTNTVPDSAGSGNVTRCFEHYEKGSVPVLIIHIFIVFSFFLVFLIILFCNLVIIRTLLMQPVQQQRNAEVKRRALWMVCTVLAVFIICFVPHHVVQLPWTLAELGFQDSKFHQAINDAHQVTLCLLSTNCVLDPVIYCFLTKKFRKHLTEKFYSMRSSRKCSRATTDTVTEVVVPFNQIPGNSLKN
Experiment: inhibition of the binding of [3H] N-methylcarbamoyl-PAF to human platelet membranes
Settings: trans configuration, read-out: % inhibitor* (% inhibition of the binding of [3H] N-methylcarbamoyl-PAF to human platelet membranes)
Experimental: The ability of a compound of formula (I) to inhibit the PAF binding to its specific receptor binding site on rabbit or human platelet or PMN plasma membranes was measured by a recently developed assay. The inhibition of ^3 [H] PAF or ^3 [H]N-methylcarbamoyl-PAF binding to the human or rabbit platelet or PMN plasma membrane by a PAF antagonist of formula (I) was determined by a method employing isotopic labeling and filtration techniques. […]
RECORDED METRIC: inhibition (%)

CCCOc1c(OCCCO)cc([C@@H]2CC[C@@H](c3cc(OC)c(OC)c(OC)c3)O2)cc1S(=O)(=O)CC(C)N(C)C (relative stereo): 23
CCCOc1cc([C@H]2CC[C@H](c3cc(OC)c(OC)c(OC)c3)O2)cc(S(=O)(=O)CCN)c1OCCC (relative stereo): 27

[I] CCCOc1c(OCCCN(C)C)cc([C@@H]2CC[C@@H](c3cc(OC)c(OC)c(OC)c3)O2)cc1S(=O)(=O)CC(C)=O (relative stereo)
[II] CCCOc1c(OCCCO)cc([C@H]2CC[C@H](c3cc(OC)c(OC)c(OC)c3)O2)cc1S(=O)(=O)CC(C)O (relative stereo)
[III] CCCOc1c(OCC(C)=O)cc([C@H]2CC[C@H](c3cc(OC)c(OC)c(OC)c3)O2)cc1S(=O)(=O)CC(C)O (relative stereo)
hey, can you rank those compounds up there by inhibition? biggest number first please Write the labels in rank order as requested.
III, II, I

[A] CCCOc1c(OCC(C)=O)cc([C@@H]2CC[C@@H](c3cc(OC)c(OC)c(OC)c3)O2)cc1S(=O)(=O)CCN(C)C (relative stereo)
[B] CCCOc1c(OCCCO)cc([C@@H]2CC[C@@H](c3cc(OC)c(OC)c(OC)c3)O2)cc1S(=O)(=O)CCN(C)C (relative stereo)
Of A versus B , which is the one with smaller reported inhibition? Your choice should be expressed through its label.
A

----------
molecular target: PAF specific receptor binding site on human platelet membranes (Homo sapiens, UniProt P25105); construct: 100 μg of the platelet plasma membrane suspension; from tissue; host or cells: human platelets (plasma membranes); assay: inhibition of the binding of [3H] N-methylcarbamoyl-PAF to human platelet membranes; settings: trans configuration, read-out: % inhibitor* (% inhibition of the binding of [3H] N-methylcarbamoyl-PAF to human platelet membranes)
RECORDED METRIC: inhibition (%)

Answered cases to consult:
CCCOc1cc([C@@H]2CC[C@@H](c3cc(OC)c(OC)c(OC)c3)O2)cc(S(=O)(=O)CCNC)c1OCCC (relative stereo): 58
CCCOc1cc([C@@H]2CC[C@@H](c3cc(OC)c(OC)c(OC)c3)O2)cc(S(=O)(=O)CCN(C)C)c1OCCC (relative stereo): 58
CCCOc1c(OCCCO)cc([C@@H]2CC[C@@H](c3cc(OC)c(OC)c(OC)c3)O2)cc1S(=O)(=O)CC(C)NC (relative stereo): 38

[P] CCCOc1cc([C@@H]2CC[C@@H](c3cc(OC)c(OC)c(OC)c3)O2)cc(S(=O)(=O)CCNCC)c1OCCC (relative stereo)
[Q] CCCOc1c(OCC(C)=O)cc([C@H]2CC[C@H](c3cc(OC)c(OC)c(OC)c3)O2)cc1S(=O)(=O)CC(C)=O (relative stereo)
[R] CCCOc1c(OCCCO)cc([C@H]2CC[C@H](c3cc(OC)c(OC)c(OC)c3)O2)cc1S(=O)(=O)CC(C)N (relative stereo)
Reorder the items by inhibition, least to greatest. Write the labels in rank order as requested.
R, P, Q
